Assay protocol: Shuffled variant libraries: 14CO2 capturing assay in 384-well format
Test settings: decarboxylation activity (carbon dioxide released) compared with unmutated backbone protein SEQ ID NO 133 (DDEC0201)
Readout kind: Fold Activity

INSERT INTO measurements (molecule, meas_value) VALUES
  ('136 (protein, Dicamba decarboxylase variant) MAQGKVALEEHFAIPETLQDSAGFVPGDYWKELQHRLLDIQDTRLKLMDAHGIETMILSLAAPAVQAIPDRRKAIEIARRANDFLAEECAKRPDRFLAFAALPLQDPDAATEELQRCVNTLGFVGALVNGFSVEGDGQTPLYYDLPQYRPFWGEVEKLDVPFYLHPRNPLPQDSRIYDGHPWLLGPTWAFAQETAVHALRLMASGLFDEHPRLNIILGHLGEGLPYMMYRIDHRIAWVHEPPRYPAKRRFMDYFNENFHITTSGNFRTQTLIDAILEIGADRILFSTDWPFENIDHAADWFNATSIAEADRVKIGRTNARRLFKLDGA', 1.4);

Entry source: patent US20160053277A1
